Recorded values, source patent EP4707277A1.

Target: BTK (Homo sapiens, UniProt Q06187)
Construct: purchased Signalchem B10-10H
Sequence (Q06187 whole entry): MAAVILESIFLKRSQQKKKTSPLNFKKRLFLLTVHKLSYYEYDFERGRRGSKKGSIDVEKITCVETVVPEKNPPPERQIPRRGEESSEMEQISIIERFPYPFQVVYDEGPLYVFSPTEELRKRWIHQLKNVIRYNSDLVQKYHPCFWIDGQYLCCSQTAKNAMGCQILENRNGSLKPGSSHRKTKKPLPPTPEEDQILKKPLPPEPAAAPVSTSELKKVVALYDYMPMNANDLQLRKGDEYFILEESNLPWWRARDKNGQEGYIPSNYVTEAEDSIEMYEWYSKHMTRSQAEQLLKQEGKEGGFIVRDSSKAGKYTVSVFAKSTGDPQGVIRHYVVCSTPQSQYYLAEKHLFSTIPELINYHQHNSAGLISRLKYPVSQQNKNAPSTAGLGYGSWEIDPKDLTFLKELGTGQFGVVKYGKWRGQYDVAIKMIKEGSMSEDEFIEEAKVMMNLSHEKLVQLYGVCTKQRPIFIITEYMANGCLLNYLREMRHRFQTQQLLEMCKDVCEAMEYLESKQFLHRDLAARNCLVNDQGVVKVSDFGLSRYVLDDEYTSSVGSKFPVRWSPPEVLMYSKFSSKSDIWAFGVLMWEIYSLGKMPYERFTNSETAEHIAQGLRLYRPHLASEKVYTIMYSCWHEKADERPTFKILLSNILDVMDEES
Test: Inhibitory activity against BTK, ADP-Glo Kinase system (Promega)
Format: biochemical
Conditions: Km ATP (BTK: 10 uM); read-out: BTK IC50(nM) Km ATP
value_kind: IC50

compound_smiles | IC50
C=CC(=O)N1CCC=C(c2nc(Nc3ncc(C)s3)cc3c2ccn3C(C)(C)C#N)C1 | 20 to 100 nM

Report IC50 under test system BTK (Homo sapiens, UniProt Q06187) for C=CC(=O)N1CC[C@H](Oc2nc(Nc3ncc(C)s3)cc3c2ccn3CCCC)C1 . ≤ 20 nM

With BTK (Homo sapiens, UniProt Q06187) as the test system, provide measured IC50 for this compound: C=CC(=O)N1CC=C(c2nc(Nc3cc(C)ccn3)cc3c2ccn3C(C)C)CC1 20 to 100 nM

Name the recorded IC50 of C=CC(=O)Nc1cc(-c2nc(Nc3ncc(C)s3)cc3c2ccn3CC(F)F)ccc1F , assay system BTK (Homo sapiens, UniProt Q06187). ≤ 20 nM

Report measured IC50 on BTK (Homo sapiens, UniProt Q06187); entry: C=CC(=O)N1CC=C(c2nc(Nc3ncc[nH]3)cc3c2ccn3C)CC1 100 to 500 nM

Report value: IC50, system: BTK (Homo sapiens, UniProt Q06187), compound: C=CC(=O)N1CC=C(c2nc(Nc3ncc(C)s3)cc3c2ccn3Cc2ccccc2)CC1 ≤ 20 nM

Retrieve IC50 on BTK (Homo sapiens, UniProt Q06187); query C=CC(=O)Nc1cc(C)cc(-c2nc(Nc3ncc(C)s3)cc3c2ccn3C)c1 ≤ 20 nM

Using BTK (Homo sapiens, UniProt Q06187) as the test system, report measured IC50 of C=CC(=O)N1CC=C(c2nc(Nc3ncc(C)s3)cc3c2ccn3CC2CCCC2)CC1 . ≤ 20 nM

---

Each item that follows carries a reported IC50.
Biological target: ITK (Homo sapiens)
Construct: purchased Signalchem I13-11G-10
Sequence (Q08881 whole entry): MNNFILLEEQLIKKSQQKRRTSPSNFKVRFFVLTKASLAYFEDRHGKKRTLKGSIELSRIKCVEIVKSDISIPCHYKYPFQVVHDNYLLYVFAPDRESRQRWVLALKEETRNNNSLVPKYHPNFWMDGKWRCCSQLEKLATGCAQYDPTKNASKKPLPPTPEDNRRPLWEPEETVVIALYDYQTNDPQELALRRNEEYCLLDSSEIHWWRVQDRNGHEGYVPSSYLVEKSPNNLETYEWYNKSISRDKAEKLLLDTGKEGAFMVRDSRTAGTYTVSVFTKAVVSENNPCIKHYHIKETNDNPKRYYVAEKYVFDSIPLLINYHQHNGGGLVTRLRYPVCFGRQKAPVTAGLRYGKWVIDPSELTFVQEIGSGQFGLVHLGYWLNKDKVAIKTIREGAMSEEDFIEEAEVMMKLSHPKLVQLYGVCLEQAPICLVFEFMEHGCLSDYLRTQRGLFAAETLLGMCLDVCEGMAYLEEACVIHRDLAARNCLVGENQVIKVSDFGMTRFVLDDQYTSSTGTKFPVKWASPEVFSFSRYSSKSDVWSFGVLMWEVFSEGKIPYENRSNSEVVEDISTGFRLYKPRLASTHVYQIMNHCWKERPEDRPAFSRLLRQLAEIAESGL
Assay: Inhibitory activity against ITK, ADP-Glo Kinase system (Promega)
Format: biochemical
Conditions: 1mM ATP; read-out: ITK IC50(nM) 1mM ATP

A selection of reference data follows.
compound | IC50
C=CC(=O)N1CC[C@@H]1COc1nc(Nc2ncc(C)s2)cc2c1ccn2CC(F)F | ≤ 20 nM
CC#CC(=O)N1C[C@H](F)[C@H](Oc2nc(Nc3ncc(C)s3)cc3c2ccn3CC(C)C)C1 | > 500 nM
C=CC(=O)N1CC[C@H](Oc2nc(Nc3ncc(C)s3)cc3c2ccn3CCC)C1 | ≤ 20 nM
C=CC(=O)N1CCC12CC(Oc1nc(Nc3ncc(C)s3)cc3c1ccn3CC(C)C)C2 (stereo not shown) | ≤ 20 nM
C=CC(=O)N1CC[C@@H](Oc2nc(Nc3ncc(C)s3)cc3c2ccn3C(C)C)C1 | > 500 nM
C=CC(=O)Nc1ccc(F)c(-c2nc(Nc3ncc(C)s3)cc3c2ccn3C(C)C)c1 | ≤ 20 nM
C=CC(=O)N1CC[C@H](Oc2nc(Nc3ncc(C)s3)cc3c2ccn3CCOC)C1 | ≤ 20 nM
C=CC(=O)N1C[C@H](F)[C@H](Oc2nc(Nc3ncc(C)s3)cc3c2ccn3CC)C1 | ≤ 20 nM
C=CC(=O)N1C[C@@H](Oc2nc(Nc3ncc(C)s3)cc3c2ccn3CC(F)(F)F)C[C@H]1C | ≤ 20 nM
C=CC(=O)Nc1ccc(F)c(-c2nc(Nc3ncc(C)s3)cc3c2ccn3CC(C)C)c1 | 100 to 500 nM

Indicate the recorded IC50 value for this compound: C=CC(=O)N1CCC1COc1nc(Nc2ncc(C)s2)cc2c1ccn2C1CCCC1 (stereo not shown) ≤ 20 nM

Look up IC50 of C=CC(=O)N1C[C@@H](Oc2nc(Nc3ncc(C)s3)cc3c2ccn3CC2CC2)C[C@@H]1C and report it. ≤ 20 nM

Note down IC50 recorded for C=CC(=O)N1C[C@@H](OC)C[C@@H]1COc1nc(Nc2ncc(C)s2)cc2c1ccn2C(C)C ≤ 20 nM

Give recorded IC50. C=CC(=O)N1C2C=C(c3nc(Nc4ncc(C)s4)cc4c3ccn4CC3(C(F)(F)F)CC3)CC1CC2 (stereo not shown) ≤ 20 nM

For the compound C#CC(=O)N1C[C@H](F)[C@H](Oc2nc(Nc3ncc(C)s3)cc3c2ccn3CC(C)C)C1 , report IC50. ≤ 20 nM

Report IC50 for C=CC(=O)N1C[C@@H](F)[C@@H](Oc2nc(Nc3ncc(C)s3)cc3c2ccn3CC(C)C)C1 > 500 nM
